experiment: in vivo; settings: C57BL/6, mouse, po, 10 mg/kg

- compound: "COc1ccc(C(N)=O)cn1 [JBSNF-000088, 6-methoxynicotinamide]"
  bioavailability: "~40%"

---

assay: in vivo; settings: male, db/db (BKS.Cg- + Leprdb/ + Leprdb/OlaHsd), mouse, in vivo, JBSNF-000088 (μM), plasma

- compound: "COc1ccc(C(N)=O)cn1 [JBSNF-000088, 6-methoxynicotinamide]"
  measurement_units: "µM"
  concentration at 1 h: 275

---

experiment: in vivo; conditions: male, db/db (BKS.Cg- + Leprdb/ + Leprdb/OlaHsd), mouse, in vivo, JBSNF-000088 (μM), subcutaneous fat
recorded_endpoint: concentration at 1 h (µM)

- compound: "COc1ccc(C(N)=O)cn1 [JBSNF-000088, 6-methoxynicotinamide]"
  recorded_number: 6.94

---

experiment: in vivo; settings: C57BL/6, mouse

- compound: "COc1ccc(C(N)=O)cn1 [JBSNF-000088, 6-methoxynicotinamide]"
  bioavailability (%): 43

---

assay: in vivo; conditions: C57BL/6, mouse, po, 10 mg/kg

- molecule: "COc1ccc(C(N)=O)cn1 [JBSNF-000088, 6-methoxynicotinamide]"
  measurement_units: "min"
  half-life: 24

---

test: in vitro; settings: human, Caco-2
recorded_endpoint: efflux ratio

- molecule: "COc1ccc(C(N)=O)cn1 [JBSNF-000088, 6-methoxynicotinamide]"
  recorded_endpoint: "efflux ratio"
  result: 1.04

---

target: mouse NNMT (mNNMT) (Mus musculus); construct: The full length NNMT proteins (1–264 amino acids) of human & mouse; 6 × His tag (N); TEV cleavage site (ENLYFQG) (N); assay: Fluorescence based NNMT enzymatic assay (mouse); conditions: fluorescence based biochemical assay
Sequence (O55239 whole entry, the tested form may be a part): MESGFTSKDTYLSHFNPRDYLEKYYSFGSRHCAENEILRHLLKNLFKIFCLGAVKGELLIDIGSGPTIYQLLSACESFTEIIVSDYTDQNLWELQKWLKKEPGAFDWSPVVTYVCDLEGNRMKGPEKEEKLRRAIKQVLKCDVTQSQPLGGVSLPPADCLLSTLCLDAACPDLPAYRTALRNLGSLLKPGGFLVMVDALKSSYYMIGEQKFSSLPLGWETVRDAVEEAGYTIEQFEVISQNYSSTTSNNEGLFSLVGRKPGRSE

- compound: "COc1ccc(C(N)=O)cn1 [JBSNF-000088, 6-methoxynicotinamide]"
  IC50 [µM]: 5
